Property: pKi; scope: individual compounds
# TEST SYSTEM: Matrix metalloproteinase-9 (Homo sapiens, UniProt P14780)
# Sequence (P14780 whole entry): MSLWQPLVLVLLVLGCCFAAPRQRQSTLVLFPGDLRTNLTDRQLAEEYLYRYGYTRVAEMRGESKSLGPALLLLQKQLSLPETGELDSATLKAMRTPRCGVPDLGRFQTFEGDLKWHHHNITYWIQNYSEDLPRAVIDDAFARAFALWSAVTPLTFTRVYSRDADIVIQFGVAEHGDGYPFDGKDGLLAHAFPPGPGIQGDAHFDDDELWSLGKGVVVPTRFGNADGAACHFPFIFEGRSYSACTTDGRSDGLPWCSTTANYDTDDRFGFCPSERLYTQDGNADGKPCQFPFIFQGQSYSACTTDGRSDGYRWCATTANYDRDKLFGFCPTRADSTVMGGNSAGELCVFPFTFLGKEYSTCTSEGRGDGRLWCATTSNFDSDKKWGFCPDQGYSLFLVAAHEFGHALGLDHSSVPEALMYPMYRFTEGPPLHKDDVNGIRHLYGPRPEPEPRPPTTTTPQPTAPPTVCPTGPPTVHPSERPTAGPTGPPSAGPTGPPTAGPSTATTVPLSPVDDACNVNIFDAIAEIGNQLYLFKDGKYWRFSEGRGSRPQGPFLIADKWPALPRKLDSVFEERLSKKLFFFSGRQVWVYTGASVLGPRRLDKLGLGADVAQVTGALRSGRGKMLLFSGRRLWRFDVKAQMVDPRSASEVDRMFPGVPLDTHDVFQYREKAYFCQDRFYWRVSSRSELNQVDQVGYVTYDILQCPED
pKi: −log10 of the molar value.

# COMPOUND, TEST SYSTEM, pKi
data = [
    ("CNC(=O)[C@H](Cc1ccccc1)NC(=O)[C@@H](CC(=O)NO)CC(C)C", "Matrix metalloproteinase-9 (Homo sapiens, UniProt P14780)", 8.85),
    ("CNC(=O)[C@H](Cc1ccccc1)NC(=O)[C@H](CCCCCCc1ccccc1)CC(=O)NO", "Matrix metalloproteinase-9 (Homo sapiens, UniProt P14780)", 8.89),
    ("CCCCC[C@H](CC(=O)NO)C(=O)N[C@H](C(=O)N1CCCC1CO)C(C)C (stereo partly drawn)", "Matrix metalloproteinase-9 (Homo sapiens, UniProt P14780)", 6.48),
    ("CNC(=O)[C@H](Cc1ccccc1)NC(=O)[C@H](CCCCCOc1ccccc1)CC(=O)NO", "Matrix metalloproteinase-9 (Homo sapiens, UniProt P14780)", 9.51),
    ("CNC(=O)CNC(=O)[C@H](CCCCOCc1ccccc1)CC(=O)NO", "Matrix metalloproteinase-9 (Homo sapiens, UniProt P14780)", 5.25),
    ("CC[C@H](CC(=O)NO)C(=O)N[C@@H](Cc1c[nH]c2ccccc12)C(=O)NC", "Matrix metalloproteinase-9 (Homo sapiens, UniProt P14780)", 7.70),
    ("CNC(=O)[C@H](Cc1c[nH]c2ccccc12)NC(=O)[C@H](C)CC(=O)NO", "Matrix metalloproteinase-9 (Homo sapiens, UniProt P14780)", 6.30),
    ("CNC(=O)[C@@H](NC(=O)[C@H](CCCCOCc1ccccc1)CC(=O)NO)C(C)(C)C", "Matrix metalloproteinase-9 (Homo sapiens, UniProt P14780)", 7.96),
]
